Kindly supply the reported IC50 values for the records listed here.
# TEST_TARGET: HLA-DR DRB1*1101 (DR11) (Homo sapiens, UniProt P01903+P01911, A100R/A169T/A87E/I96F/K41T/L162R/M171V/P40S/Q125H/Q178H/Q39Y/Q99D/R42S/S66Y/T262R/V115G/W38E)
# Sequence (P01903 26-254 limits assumed, other chains not shown): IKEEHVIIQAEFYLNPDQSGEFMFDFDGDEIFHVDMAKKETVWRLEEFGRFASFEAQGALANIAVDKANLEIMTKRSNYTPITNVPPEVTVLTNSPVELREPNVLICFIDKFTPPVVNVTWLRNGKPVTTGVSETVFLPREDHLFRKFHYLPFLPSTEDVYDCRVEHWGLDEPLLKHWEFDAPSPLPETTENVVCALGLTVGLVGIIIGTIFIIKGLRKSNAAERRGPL
# METHOD_DESCRIPTION: biochemical
# Assay type: binding
# CONDITION_DESCRIPTION: DRB1 *1101
One number for each entry, in µM.

Exam item: Looking for the measured IC50 of CC[C@H](C)[C@H](NC(=O)[C@H](CO)NC(=O)[C@@H](NC(=O)CNC(=O)[C@H](CCC(=O)O)NC(=O)[C@@H]1CCCN1)C(C)C)C(=O)N[C@@H](Cc1c[nH]c2ccccc12)C(=O)N[C@@H](CC(N)=O)C(=O)N1CCC[C@H]1C(=O)N[C@H](C(=O)N[C@@H](CC(C)C)C(=O)N[C@@H](CC(C)C)C(=O)N[C@@H](Cc1c[nH]c2ccccc12)C(=O)N[C@@H](CCC(N)=O)C(=O)N1CCC[C@H]1C(=O)O)[C@@H](C)CC , can you help?
Marked response: 30.9

Exam item: Request: CC(C)C[C@H](NC(=O)[C@H](CCC(N)=O)NC(=O)[C@H](CC(=O)O)NC(=O)[C@H](CCC(=O)O)NC(=O)[C@H](CO)NC(=O)[C@H](CC(C)C)NC(=O)[C@@H]1CCCN1C(=O)[C@@H](NC(=O)[C@@H](N)[C@@H](C)O)C(C)C)C(=O)N[C@@H](CC(C)C)C(=O)N[C@@H](Cc1ccc(O)cc1)C(=O)N[C@@H](CC(C)C)C(=O)N1CCC[C@H]1C(=O)N[C@@H](Cc1ccccc1)C(=O)N[C@@H](CCCNC(=N)N)C(=O)O
Marked response: 26.5

Exam item: Follow-up entry: CC(C)C[C@H](NC(=O)[C@H](CCC(N)=O)NC(=O)[C@H](CCC(N)=O)NC(=O)[C@H](CC(C)C)NC(=O)[C@@H](NC(=O)[C@H](CCCNC(=N)N)NC(=O)[C@@H](N)CC(C)C)[C@@H](C)O)C(=O)N[C@@H](Cc1ccccc1)C(=O)N[C@@H](CC(C)C)C(=O)N[C@@H](CO)C(=O)N[C@H](C(=O)N[C@@H](CC(C)C)C(=O)N[C@@H](CO)C(=O)N[C@@H](Cc1ccccc1)C(=O)N[C@H](C(=O)O)C(C)C)[C@@H](C)O
Marked response: 0.208

Can you give me IC50 for all of these, one by one?
1. CC[C@H](C)[C@H](NC(=O)[C@H](CO)NC(=O)[C@H](CC(N)=O)NC(=O)[C@H](C)NC(=O)[C@H](CC(C)C)NC(=O)[C@H](CCC(=O)O)NC(=O)[C@H](Cc1ccccc1)NC(=O)[C@@H](N)C(C)C)C(=O)N[C@H](C(=O)N[C@@H](CC(C)C)C(=O)N1CCC[C@H]1C(=O)N[C@@H](Cc1ccccc1)C(=O)N[C@@H](CC(=O)O)C(=O)N[C@@H](CS)C(=O)N[C@@H](CCCNC(=N)N)C(=O)O)C(C)C
2. CC(C)C[C@H](NC(=O)[C@H](C)NC(=O)[C@H](Cc1ccccc1)NC(=O)[C@@H](N)[C@@H](C)O)C(=O)N[C@@H](Cc1c[nH]c2ccccc12)C(=O)N[C@@H](CCCNC(=N)N)C(=O)N[C@H](C(=O)N[C@@H](CO)C(=O)N[C@@H](C)C(=O)N[C@@H](CCC(=O)O)C(=O)N[C@@H](CCC(=O)O)C(=O)N[C@@H](Cc1ccc(O)cc1)C(=O)O)C(C)C

Marked response:
1. 11.8
2. 0.342

Quick one: give me IC50 for each item below, same order please.
1. CC[C@H](C)[C@H](N)C(=O)N[C@@H](Cc1ccc(O)cc1)C(=O)N[C@@H](CO)C(=O)N[C@H](C(=O)N[C@@H](CO)C(=O)N[C@@H](CCSC)C(=O)N[C@@H](CCCCN)C(=O)N[C@@H](Cc1c[nH]cn1)C(=O)N1CCC[C@H]1C(=O)N[C@@H](CCC(N)=O)C(=O)N[C@@H](CCC(=O)O)C(=O)N[C@@H](CCSC)C(=O)N[C@@H](CCCCN)C(=O)N[C@H](C(=O)N[C@@H](Cc1ccc(O)cc1)C(=O)O)[C@@H](C)O)[C@@H](C)CC
2. CC(C)C[C@H](NC(=O)CNC(=O)[C@H](Cc1ccccc1)NC(=O)[C@H](CCC(=O)O)NC(=O)[C@H](CCCCN)NC(=O)[C@@H](N)Cc1c[nH]c2ccccc12)C(=O)N[C@@H](CC(=O)O)C(=O)N[C@@H](CO)C(=O)N[C@H](C(=O)N[C@@H](CCC(=O)O)C(=O)N[C@@H](CC(C)C)C(=O)N[C@@H](C)C(=O)N[C@@H](Cc1c[nH]cn1)C(=O)N[C@@H](Cc1ccc(O)cc1)C(=O)N[C@@H](CC(=O)O)C(=O)O)C(C)C
3. CSCC[C@H](NC(=O)[C@H](CC(C)C)NC(=O)[C@H](CCC(N)=O)NC(=O)[C@H](CC(=O)O)NC(=O)[C@H](CC(N)=O)NC(=O)[C@H](CCSC)NC(=O)[C@H](CCSC)NC(=O)[C@H](CCCNC(=N)N)NC(=O)[C@H](CC(C)C)NC(=O)[C@@H](N)C(C)C)C(=O)N[C@@H](Cc1ccccc1)C(=O)N[C@@H](CC(C)C)C(=O)N[C@@H](CCC(=O)O)C(=O)N[C@@H](CCCNC(=N)N)C(=O)N[C@@H](C)C(=O)O

Marked response:
0.213
4.93
2.35
